tested_on: cAMP-dependent protein kinase catalytic subunit PRKX (Homo sapiens)
Sequence (whole entry): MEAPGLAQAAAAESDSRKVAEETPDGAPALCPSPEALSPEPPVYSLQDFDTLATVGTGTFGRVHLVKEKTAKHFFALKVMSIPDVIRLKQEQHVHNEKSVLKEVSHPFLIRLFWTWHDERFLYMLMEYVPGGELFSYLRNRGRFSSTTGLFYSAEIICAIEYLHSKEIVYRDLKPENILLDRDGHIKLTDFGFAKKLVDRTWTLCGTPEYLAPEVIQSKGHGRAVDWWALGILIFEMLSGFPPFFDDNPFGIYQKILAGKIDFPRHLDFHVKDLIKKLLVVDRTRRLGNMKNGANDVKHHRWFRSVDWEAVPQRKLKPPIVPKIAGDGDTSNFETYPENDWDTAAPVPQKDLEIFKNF
assay_context: at 1 µM;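 further: each value is the mean percent inhibition of the kinase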
measurement_type: inhibition (%)
Number in %, nothing else.

Solved cases below.
N#Cc1ccc2c(-c3ccnc(NC4CC4)n3)c(-c3ccc(F)cc3)nn2c1 ... 0.23
Fc1ccc(Nc2nccc(-c3c(-c4ccc(C(F)(F)F)cc4)nn4ncccc34)n2)cc1F ... -1.3
COc1c(C(N)=O)cc(-c2ccc(Cl)cc2)cc1-c1ccc(S(N)(=O)=O)cc1 ... 3.72
O=C(Nc1n[nH]c2nnc(-c3cccnc3)cc12)C1CC1 ... -0.33
COC(=O)Nc1nc2ccc(Oc3ccc(NC(=O)Nc4cc(C(F)(F)F)ccc4F)cc3)cc2s1 ... -0.17

Attention now turns to another entry.
The observed inhibition for O=C(O[C@H]1CN[C@H](C#Cc2cc3ncnc(Nc4ccc(OCc5cccc(F)c5)c(Cl)c4)c3s2)C1)N1CCOCC1 when tested with cAMP-dependent protein kinase catalytic subunit PRKX (Homo sapiens) stands at 6.34
